# assayTarget: Recombinant human factor D (Homo sapiens (Human), UniProt P00746)
# Sequence (P00746 26-253): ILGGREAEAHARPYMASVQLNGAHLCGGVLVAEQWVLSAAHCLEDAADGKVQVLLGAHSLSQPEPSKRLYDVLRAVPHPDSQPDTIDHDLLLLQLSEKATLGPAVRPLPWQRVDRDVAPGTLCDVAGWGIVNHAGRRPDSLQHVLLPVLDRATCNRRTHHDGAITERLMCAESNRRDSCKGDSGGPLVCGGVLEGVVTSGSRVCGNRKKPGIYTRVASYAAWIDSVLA
# assayProtocol: Human Complement Factor D Assay: Method 1
# Assay type: biochemical
# conditionLabel: 10 nM factor D, substrate Z-Lys-thiobenzyl, fluorescence readout, read-out: IC50 (μM), Factor D inhibition
quantityName: IC50 (µM)

In [3]: df
Out[3]:
                            structurestring                               assaytarget  displayunit  measuredresult
0  CC[C@H](C)NC(=O)[C@@H]1C[C@H]2C[C@H]2N1C(=O)Cn1nc(C(C)=O)c2cc(OCc3ncccn3)ccc21  Recombinant human factor D (Homo sapiens (Human), UniProt P00746)           µM           0.929
1  COC[C@H](CC(C)(C)C)NC(=O)[C@@H]1C[C@H]2C[C@H]2N1C(=O)Cn1nc(C(N)=O)c2ccccc21  Recombinant human factor D (Homo sapiens (Human), UniProt P00746)           µM           0.443
2  CCNC(=O)[C@@H]1C[C@H]2C[C@H]2N1C(=O)Cn1nc(C(N)=O)c2ccncc21  Recombinant human factor D (Homo sapiens (Human), UniProt P00746)           µM            7.22
3  CO[C@@H]1CN(C(=O)Cn2nc(C(N)=O)c3ccccc32)[C@H](C(=O)NCCC(C)(C)C)[C@H]1F  Recombinant human factor D (Homo sapiens (Human), UniProt P00746)           µM            14.6
4  NC(=O)n1cc(NC(=O)N2[C@@H]3C[C@@H]3C[C@H]2C(=O)NCCCCOC(F)(F)F)c2ccccc21  Recombinant human factor D (Homo sapiens (Human), UniProt P00746)           µM            1.39
5  CCNC(=O)[C@@H]1C[C@H]2C[C@H]2N1C(=O)Cn1nc(C(N)=O)c2cc(OCc3ncccn3)ccc21  Recombinant human factor D (Homo sapiens (Human), UniProt P00746)           µM            2.89
6  NC(=O)n1cc(NC(=O)N2[C@@H]3C[C@@H]3C[C@H]2C(=O)NCCOC(F)(F)C(F)(F)F)c2ccccc21  Recombinant human factor D (Homo sapiens (Human), UniProt P00746)           µM            1.97

---

Below is a list of entries, each paired with its recorded IC50 value.
# assayTarget: Recombinant human factor D (Homo sapiens (Human))
# assayProtocol: Human Complement Factor D Assay: Method 1
# Type: biochemical
# conditionLabel: 10 nM factor D, substrate Z-Lys-thiobenzyl, fluorescence readout, read-out: IC50 (μM), Factor D inhibition
Structures can show the parent of a compound that is named as a salt.
quantityName: IC50 (µM)

>>> df
                                    molecule                               assaytarget  quantityname  displayunit  measuredresult
 0  CC(=O)c1nn(CC(=O)N2[C@@H]3C[C@@H]3C[C@H]2C(=O)NCC(O)C(F)(F)F)c2ncccc12 (stereo partly shown)  Recombinant human factor D (Homo sapiens (Human))          IC50           µM            10.8
 1  CC(=O)c1nn(CC(=O)N2[C@@H]3C[C@@H]3C[C@H]2C(=O)NCCC(C)(C)C)c2ncccc12  Recombinant human factor D (Homo sapiens (Human))          IC50           µM           0.227
 2  CC(C)(C)C[C@@H](CO)NC(=O)[C@@H]1C[C@H]2C[C@H]2N1C(=O)Cn1nc(C(N)=O)c2ccccc21  Recombinant human factor D (Homo sapiens (Human))          IC50           µM           0.593
 3  CC(=O)c1nn(CC(=O)N2[C@@H]3C[C@@H]3C[C@H]2C(=O)NCCOC(F)(F)F)c2ccc(OCc3ncccn3)cc12  Recombinant human factor D (Homo sapiens (Human))          IC50           µM           0.021
 4  CC(C)(C)C[C@H](CO)NC(=O)[C@@H]1C[C@H]2C[C@H]2N1C(=O)Cn1nc(C(N)=O)c2ccccc21  Recombinant human factor D (Homo sapiens (Human))          IC50           µM            5.36
 5  CC(=O)c1nn(CC(=O)N2[C@@H]3C[C@@H]3C[C@H]2C(=O)NCCOC(F)(F)C(F)(F)F)c2ccc(OCc3ncccn3)cc12  Recombinant human factor D (Homo sapiens (Human))          IC50           µM           0.152
 6  CO[C@H]1[C@@H](C(=O)NCCC(C)(C)C)N(C(=O)Cn2nc(C(N)=O)c3ccccc32)C[C@@H]1F  Recombinant human factor D (Homo sapiens (Human))          IC50           µM           0.103
 7  C[C@H](CC(C)(C)C)NC(=O)[C@@H]1C[C@H]2C[C@H]2N1C(=O)Cn1nc(C(N)=O)c2ccccc21  Recombinant human factor D (Homo sapiens (Human))          IC50           µM           0.113
 8  NC(=O)n1cc(NC(=O)N2[C@@H]3C[C@@H]3C[C@H]2C(=O)NCCOC(F)(F)F)c2ccccc21  Recombinant human factor D (Homo sapiens (Human))          IC50           µM           0.427
 9  CC(=O)c1nn(CC(=O)N2[C@@H]3C[C@@H]3C[C@H]2C(=O)NCCC(C)C)c2ncccc12  Recombinant human factor D (Homo sapiens (Human))          IC50           µM           0.324
10  NC(=O)n1cc(NC(=O)N2[C@@H]3C[C@@H]3C[C@H]2C(=O)NCCCOC(F)(F)F)c2ccccc21  Recombinant human factor D (Homo sapiens (Human))          IC50           µM           0.912
11  CC(=O)c1nn(CC(=O)N2[C@@H]3C[C@@H]3C[C@H]2C(=O)NCCC(C)(C)C)c2cnccc12  Recombinant human factor D (Homo sapiens (Human))          IC50           µM           0.068
12  CC(C)(C)CCNC(=O)[C@@H]1C[C@H]2C[C@H]2N1C(=O)Cn1nc(C(N)=O)c2ccncc21  Recombinant human factor D (Homo sapiens (Human))          IC50           µM           0.168
13  CC[C@@H](C)NC(=O)[C@@H]1C[C@H]2C[C@H]2N1C(=O)Cn1nc(C(C)=O)c2cc(OCc3ncccn3)ccc21  Recombinant human factor D (Homo sapiens (Human))          IC50           µM           0.333
14  CC(C)(C)C(=O)CNC(=O)[C@@H]1C[C@H]2C[C@H]2N1C(=O)Cn1nc(C(N)=O)c2ccccc21  Recombinant human factor D (Homo sapiens (Human))          IC50           µM           0.192
15  CC(C)(C)C(F)CNC(=O)[C@@H]1C[C@H]2C[C@H]2N1C(=O)Cn1nc(C(N)=O)c2ccccc21 (stereo partly shown)  Recombinant human factor D (Homo sapiens (Human))          IC50           µM           0.384
16  C[Si](C)(C)CCNC(=O)[C@@H]1C[C@H]2C[C@H]2N1C(=O)Cn1nc(C(N)=O)c2ccncc21  Recombinant human factor D (Homo sapiens (Human))          IC50           µM           0.153
17  NC(=O)c1nn(CC(=O)N2[C@@H]3C[C@@H]3C[C@H]2C(=O)NCC(F)F)c2ccccc12  Recombinant human factor D (Homo sapiens (Human))          IC50           µM           0.874
18  CC(C)(O)CCNC(=O)[C@@H]1C[C@H]2C[C@H]2N1C(=O)Cn1nc(C(N)=O)c2ccncc21 [Example 10, trifluoroacetate]  Recombinant human factor D (Homo sapiens (Human))          IC50           µM            5.67
19  CC(=O)c1nn(CC(=O)N2[C@@H]3C[C@@H]3C[C@H]2C(=O)NCCC(F)(F)F)c2cnccc12  Recombinant human factor D (Homo sapiens (Human))          IC50           µM            5.32
20  CCNC(=O)[C@@H]1C[C@H]2C[C@H]2N1C(=O)Cn1nc(C(C)=O)c2cc(OCc3ncccn3)ccc21  Recombinant human factor D (Homo sapiens (Human))          IC50           µM           0.504
21  C[Si](C)(C)CCNC(=O)[C@@H]1C[C@H]2C[C@H]2N1C(=O)Cn1nc(C(N)=O)c2ccccc21  Recombinant human factor D (Homo sapiens (Human))          IC50           µM           0.065
22  CC(=O)c1nn(CC(=O)N2[C@@H]3C[C@@H]3C[C@H]2C(=O)NCCC(C)(C)C)c2ccc(OCc3ncccn3)cc12  Recombinant human factor D (Homo sapiens (Human))          IC50           µM           0.009
23  CC(=O)c1nn(CC(=O)N2[C@@H]3C[C@@H]3C[C@H]2C(=O)NCCCOC(F)(F)F)c2ccc(OCc3ncccn3)cc12  Recombinant human factor D (Homo sapiens (Human))          IC50           µM           0.127
24  CC(C)(C)C(O)CNC(=O)[C@@H]1C[C@H]2C[C@H]2N1C(=O)Cn1nc(C(N)=O)c2ccccc21 (stereo partly shown)  Recombinant human factor D (Homo sapiens (Human))          IC50           µM           0.271
25  CC(=O)c1nn(CC(=O)N2[C@@H]3C[C@@H]3C[C@H]2C(=O)NCCCOC(F)(F)F)c2ccccc12  Recombinant human factor D (Homo sapiens (Human))          IC50           µM           0.605
26  CC(C)(C)CCNC(=O)[C@@H]1C[C@H]2C[C@H]2N1C(=O)Nc1cn(C(N)=O)c2ccccc12  Recombinant human factor D (Homo sapiens (Human))          IC50           µM           0.058
27  CO[C@H]1[C@@H](C(=O)NCCC(C)(C)C)N(C(=O)Cn2nc(C(C)=O)c3ccccc32)C[C@@H]1F  Recombinant human factor D (Homo sapiens (Human))          IC50           µM           0.088
